Test system: Pseudomonas aeruginosa ATCC 15442
Experiment: DGHM suspension test, microbicidal activity
Type: cell-based
Settings: CU 200 mg/l; contact time 60 mins.
Here, each record is paired with measured logarithmic reduction factor data.

smiles_representation=CCCCCCCC(=O)OCC[N+](C)(CCO)CCOC(=O)CCCCCCC.COS(=O)(=O)[O-] obs_value=>5.86
smiles_representation=CCCCCCCCCCCC(=O)OCC[N+](C)(CCO)CCOC(=O)CCCCCCCCCCC.COS(=O)(=O)[O-] obs_value=<1.81

Entry `CCCCCCCCC(=O)OCC[N+](C)(C)CCOC(=O)CCCCCCCC.COS(=O)(=O)[O-]` ; assay system Pseudomonas aeruginosa ATCC 15442; logarithmic reduction factor recorded at >5.53

Value sought: logarithmic reduction factor, system Pseudomonas aeruginosa ATCC 15442, item `CCCCCCCC(=O)OCC[N+](C)(CCOC(=O)CCCCCCC)CCOC(=O)CCCCCCC.COS(=O)(=O)[O-]` . Result: >5.59

So the reported logarithmic reduction factor for `CCCCCCCC(=O)OCC[N+](C)(C)CCOC(=O)CCCCCCC.COS(=O)(=O)[O-]` , on Pseudomonas aeruginosa ATCC 15442, turned out to be <1.56
